- Tested on: Staphylococcus aureus
- assay.details: Antibacterial susceptibility testing (MIC/MBC), S. aureus
- Type: cell-based
- particulars: Staphylococcus aureus, DSM20231, read-out: MIC S. aureus DSM 20231
quantity.name: MIC (µg/mL)

smiles_entry=Nc1ccc2c(c1)[nH]c1ccccc12 quantity_unit=µg/mL comparison_sign== reported_value=8
smiles_entry=Cn1c2ccccc2c2ccccc21 quantity_unit=µg/mL comparison_sign=> reported_value=500
smiles_entry=c1ccc2[nH]ccc2c1 quantity_unit=µg/mL comparison_sign== reported_value=500
smiles_entry=CC(=O)Nc1ccc2c(c1)Cc1cc(Br)ccc1-2 quantity_unit=µg/mL comparison_sign=> reported_value=500
smiles_entry=c1ccc2c(c1)[nH]c1ccccc12 quantity_unit=µg/mL comparison_sign=> reported_value=500
